Target or system: T1, human PD-L2 (full-length, on cells) (human, UniProt Q9BQ51 20-273)
T1 chain: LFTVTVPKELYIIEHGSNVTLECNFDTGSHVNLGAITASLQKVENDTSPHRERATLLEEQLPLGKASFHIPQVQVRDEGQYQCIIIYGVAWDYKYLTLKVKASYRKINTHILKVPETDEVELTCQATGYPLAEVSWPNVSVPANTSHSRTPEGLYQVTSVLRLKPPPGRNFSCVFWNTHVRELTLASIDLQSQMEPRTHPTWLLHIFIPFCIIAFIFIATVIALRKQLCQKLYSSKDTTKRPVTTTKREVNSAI
Test: blocking of hPD-1 binding to CHO-K1/hPD-L2 cells
Measurement label: pIC50
pIC50 is a log-scale quantity: -log10 of the concentration expressed in molar.

{"Binder": "1A1-C2 (antibody, V domains shown) VH: QVQLQESGPGLVKPSGTLSLTCAVSGGSIGSSYWWTWIRQSPGKGLEWIGEIFHSGPTNYTPSLKSRVTISVDKSKNQFSLQLRSVTAADTAVYYCARTTGTTGFYYGMDVWGQGTTVTVSS VL: EVVLTQSPATLYVTPGERVTLSCRASQSVSSNLAWYQQKPGQAPRLLIYGASTRATGIPARFSGSGSGTEFTLTISSLQSEDFAVYYCQQFNNWPRTFGLGTKVEIT", "Obs value": 9.31}

Recorded pIC50 (binder 10D1-G1 (antibody, V domains shown, Both formats under this entry) VH: QVQLQESGPGLVKPSGTLSLTCAVSGGSISSSYWWSWVRQPPGKGLEWIGEIFHIGSTNYNPSLRSRVTISVVKSKNQFSLNLNSVTAADTAVYFCARVSGGYGYFSGMDVWGQGTTVTVSS VL: DIQMTQSPSSLSASVGDRVTITCRASQGIRNDLGWYQQKPGKAPKRLIYGASSLQSGVPSRFSGSGSGTEFTLTISSLQPEDFATYYCLQHNSYPRTFGQGTKVEIK ): 9.40
